Each entry below carries its reported Percent Inhibition (K562 adhesion to FN9-10 peptide of fibronectin, 5 µg/ml).
Target Entity: α5β1 integrin (on K562 cells) (UniProt P08648 42-1049; P05556 21-798, limits assumed)
Sequence (P08648 42-1049 limits assumed, chain 1 of 2): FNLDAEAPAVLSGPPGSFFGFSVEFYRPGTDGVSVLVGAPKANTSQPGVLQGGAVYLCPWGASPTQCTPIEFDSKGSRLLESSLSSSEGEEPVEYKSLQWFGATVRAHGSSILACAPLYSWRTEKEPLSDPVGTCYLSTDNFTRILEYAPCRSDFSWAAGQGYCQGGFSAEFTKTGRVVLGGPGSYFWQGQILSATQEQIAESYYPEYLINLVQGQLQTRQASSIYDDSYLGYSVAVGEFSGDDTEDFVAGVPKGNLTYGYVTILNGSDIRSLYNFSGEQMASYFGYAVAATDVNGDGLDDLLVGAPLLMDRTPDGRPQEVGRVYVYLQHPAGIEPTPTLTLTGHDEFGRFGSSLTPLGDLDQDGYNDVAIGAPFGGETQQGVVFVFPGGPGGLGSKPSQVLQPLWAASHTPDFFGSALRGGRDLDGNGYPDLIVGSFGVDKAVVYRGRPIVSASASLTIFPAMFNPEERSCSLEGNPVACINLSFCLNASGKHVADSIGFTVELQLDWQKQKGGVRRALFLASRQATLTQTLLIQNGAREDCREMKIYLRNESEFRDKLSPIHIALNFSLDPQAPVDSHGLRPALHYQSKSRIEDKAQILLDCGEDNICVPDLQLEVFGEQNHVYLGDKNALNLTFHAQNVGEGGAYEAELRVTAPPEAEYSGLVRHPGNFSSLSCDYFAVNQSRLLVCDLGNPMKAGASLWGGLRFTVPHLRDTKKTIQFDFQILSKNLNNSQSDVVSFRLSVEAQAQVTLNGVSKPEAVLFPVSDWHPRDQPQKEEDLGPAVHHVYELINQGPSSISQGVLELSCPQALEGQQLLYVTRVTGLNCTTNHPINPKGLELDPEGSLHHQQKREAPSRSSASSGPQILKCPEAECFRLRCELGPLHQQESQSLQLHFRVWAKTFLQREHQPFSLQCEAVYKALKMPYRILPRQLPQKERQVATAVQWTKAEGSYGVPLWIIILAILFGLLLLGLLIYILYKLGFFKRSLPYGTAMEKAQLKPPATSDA
Sequence (P05556 21-798 limits assumed, chain 2 of 2): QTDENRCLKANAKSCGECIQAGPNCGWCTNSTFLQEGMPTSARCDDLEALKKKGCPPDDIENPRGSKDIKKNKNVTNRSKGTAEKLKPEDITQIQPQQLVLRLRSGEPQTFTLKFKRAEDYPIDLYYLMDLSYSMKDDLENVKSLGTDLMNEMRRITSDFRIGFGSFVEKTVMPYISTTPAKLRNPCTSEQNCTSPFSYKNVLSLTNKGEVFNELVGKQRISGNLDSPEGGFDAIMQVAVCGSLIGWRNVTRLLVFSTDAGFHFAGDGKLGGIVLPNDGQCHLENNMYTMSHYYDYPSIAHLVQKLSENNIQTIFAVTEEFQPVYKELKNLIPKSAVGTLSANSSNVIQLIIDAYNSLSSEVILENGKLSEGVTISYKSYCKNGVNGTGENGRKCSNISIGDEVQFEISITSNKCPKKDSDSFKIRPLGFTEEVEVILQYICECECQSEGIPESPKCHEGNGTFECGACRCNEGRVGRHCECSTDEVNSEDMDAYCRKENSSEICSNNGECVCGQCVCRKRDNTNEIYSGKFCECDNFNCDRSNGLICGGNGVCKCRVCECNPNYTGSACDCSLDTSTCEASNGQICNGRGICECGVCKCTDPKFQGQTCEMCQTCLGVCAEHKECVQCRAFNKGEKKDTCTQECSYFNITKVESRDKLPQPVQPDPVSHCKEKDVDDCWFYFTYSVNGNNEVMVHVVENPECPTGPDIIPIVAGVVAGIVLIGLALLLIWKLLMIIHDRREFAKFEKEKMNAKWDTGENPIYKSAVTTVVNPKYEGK
Method: cell-based or functional assay
The reply should contain only the number, in %.

Binder	Value Measured
sc 254 (antibody, V domains shown) VH: QVQLQESGPGLVKPSQTLSLTCTVSGGSISSGGYYWSWIRQHPGKGLEWIGYIYYSGSTYYNPSLKSRVTISVDTSKNQFSLKLSSVTAADTAMYYCARYRGPAAGRGDFYYFGMDVWGQGTTVTVSS VL: DIVMTQTPLSLSVTPGQPASIFCKSSQSLLNSDGKTYLCWYLQKPGQPPQLLIYEVSNRFSGVPDRFSGSGSGTDFTLKISRVEAEDVGVYYCMQGIQLPWAFFGQGTKVEIK	-9
sc 133 (antibody, V domains shown) VH: QVQLVQSGAEVKKPGASVKVSCKASGYTFTGYYMHWVRQAPGQGLEWMGWINPKSGDTNYAQKFQGRVTLTRDTSTSTAYMELSRLRSDDTAVYYCARRLDVWGQGTTVTVSS VL: QSVLTQPPSVSAAPGQKVTISCSGSSSNIGNNYVSWYQQLPGTAPKLLIYDNNKRPSGIPDRFSGSKSGTSATLGITGLQTGDEADYYCGTWNSSLSAGYVFGTGTKVTV	-12
sc 188 (antibody, V domains shown) VH: QVQLQESGPGLVKPSQTLSLTCTVSGGSISSGVYYWTWIRQHPGNGLEWIGYIYYSGSTSYNPSLKSRVTISVDTSKKQFSLNLTSVTAADTAVYYCAREGPLRGDYYYGLDVWGQGTTVTVSS VL: EIVLTQSPGTLSLSPGERATLSCRAGQTISSRYLAWYQQKPGQAPRPLIYGASSRATGIPDRFSGSGSGTDFTLTISRLEPEDFAVYYCQQYGSSPRTFGQGTKVEIK	5

With those in mind, consider the next binder.
Problem: For the binder sc 298 (antibody, V domains shown) VH: QVQLVESGGGVVQPGRSLRLSCAASGFTFSSYGMHWVRQAPGKGLEWVAVIWYGGSNKYYADSVKGRFTISRDNSKNTLYLQMNSLRAEDTAVYYCARDLAARRGDYYYYGMDVWGQGTTVTVSS VL: SSELTQDPVVSVALGQTVRITCQGDSLRSYYLSWYQQKPGQAPVLVIYGKNNRPSGIPDRFSGSNSGNTASLTITGAQAEDEADYYCNSRDSSGNHLFGGGTKLTVL , what Percent Inhibition (K562 adhesion to FN9-10 peptide of fibronectin, 5 µg/ml) is on record?
Result: 2
